- TEST_SYSTEM: kappa opioid receptor (OPRK1) (Homo sapiens (Human), UniProt P41145)
- Sequence (P41145 whole entry): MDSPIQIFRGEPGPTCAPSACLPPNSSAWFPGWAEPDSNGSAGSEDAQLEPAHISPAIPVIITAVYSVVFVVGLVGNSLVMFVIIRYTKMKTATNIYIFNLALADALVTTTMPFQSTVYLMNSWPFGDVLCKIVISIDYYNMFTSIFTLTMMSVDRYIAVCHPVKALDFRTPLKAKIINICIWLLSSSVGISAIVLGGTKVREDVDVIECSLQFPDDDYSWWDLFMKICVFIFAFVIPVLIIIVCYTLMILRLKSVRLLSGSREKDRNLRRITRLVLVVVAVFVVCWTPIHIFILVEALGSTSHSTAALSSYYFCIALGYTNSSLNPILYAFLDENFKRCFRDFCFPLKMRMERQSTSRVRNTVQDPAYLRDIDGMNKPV
- PROTOCOL_DETAILS: OPRK1 antagonist assay (b-arrestin-2-TEV / b-lactamase reporter, EC80 U-50488 challenge)
- ASSAY_CONDITIONS: OPRK1 antagonist assay vs EC80 U-50488
OBSERVATION_TYPE: IC50

# COMPOUND, VAL
rows = [
    ("Cc1noc(-c2cc3cc(C)c(C)cc3nc2N2CCC(NC3CCOCC3)CC2)n1 [C90]", "> 10 µM"),
    ("COC(=O)c1ccc(C(F)(F)F)nc1N1CCC(NC2CCCCC2)CC1 [C24]", "> 10 µM"),
    ("Cc1ccc2nc(N3CCC(NC(=O)OC(C)(C)C)CC3)c(-c3nc(C)no3)cc2c1 [C71]", "> 10 µM"),
]
